Data origin, for the record: the RNAGym collection of RNA variant scans (doi:10.1073/pnas.2313332121)

B1: TPR t1 (parent)
chain: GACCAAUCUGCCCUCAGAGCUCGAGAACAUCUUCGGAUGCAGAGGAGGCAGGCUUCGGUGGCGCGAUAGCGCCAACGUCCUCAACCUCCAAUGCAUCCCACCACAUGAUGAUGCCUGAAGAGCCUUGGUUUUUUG

variants of: B1; experiment: polymerase ribozyme fitness, log enrichment relative to wild type (log ratio); higher = more active; in vitro selection for triplet polymerase activity
A collection of variants and their measured polymerase ribozyme fitness (log ratio)
API doc: respond with a numeric literal and nothing else, no unit.

Reference set (3 entries):
[
  {
    "variant.designation": "C4G G51U G120U",
    "polymerase ribozyme fitness (log ratio)": -4.56
  },
  {
    "variant.designation": "C8U C13A C85A U106C C123A",
    "polymerase ribozyme fitness (log ratio)": -0.442
  },
  {
    "variant.designation": "C15A A41U G60C U133A",
    "polymerase ribozyme fitness (log ratio)": -3.25
  }
]

Task: # query: polymerase ribozyme fitness (log ratio) of entry A46G C53A
Result: -0.35

Task: Same again, this time with G10U C101A U125G
Result: -2.32

Task: Same again, this time with G45A A118G
Result: -1.02

Task: Same again, this time with G17U A84U U96G G128U U130C
Result: -3.54

Task: Same again, this time with A46U C115U
Result: -2.18

Task: Same again, this time with C72A C98A U131A
Result: -5.63

Task: Same again, this time with C8G A16C U87A
Result: -0.437
